Sourced from patent US10793547B2

Test system: Rat hepatocytes
TEST SUMMARY: Hepatocyte clearance, rat hepatocytes
Assay type: in vitro ADME
CONDITION DESCRIPTION: percent unchanged
QUANTITY KIND: Hepatocyte clearance-Rat Rat hepatocytes CL pct_unchanged (%)

Previously resolved entries follow.
Cc1nn(C)c(C)c1S(=O)(=O)NC(=O)c1ccc(-n2ccc(OCC3(C(F)(F)F)CC3)n2)nc1N1C[C@@H](C)CC1(C)C [Compound 16]    10
Cc1nn(C)cc1S(=O)(=O)NC(=O)c1ccc(-n2ccc(OCC(C)(CO)C(F)(F)F)n2)nc1N1C[C@@H](C)CC1(C)C (stereo partly drawn) [Compound 45]    49
Cc1nn(C)c(C)c1S(=O)(=O)NC(=O)c1ccc(-n2ccc(OCCC3(C(F)(F)F)CC3)n2)nc1N1C[C@@H](C)CC1(C)C [Compound 18]    0
C[C@@H]1CN(c2nc(-n3ccc(OCC4(C(F)(F)F)CC4)n3)ccc2C(=O)NS(=O)(=O)c2cnn(C)c2)C(C)(C)C1 [Compound 6]    53

[a] C[C@@H]1CN(c2nc(-n3ccc(OCC(C)(C)C(F)(F)F)n3)ccc2C(=O)NS(=O)(=O)c2cn(C)nc2CO)C(C)(C)C1 [Compound 39]
[b] C[C@@H]1CN(c2nc(-n3ccc(OCC(C)(C)C)n3)ccc2C(=O)NS(=O)(=O)c2ccc[nH]c2=O)C(C)(C)C1 [B, reference compound]
Larger number for Hepatocyte clearance-Rat Rat hepatocytes CL pct_unchanged: a , or b ? Mark your answer with the label of the selected entry.
a
(a: 39%, b: 13%)

* * *

TEST SUMMARY: Rat IV and PO PK studies
Type: in vivo, male Sprague-Dawley rats
CONDITION DESCRIPTION: PO, nominal 3 mg/kg
Description: C. Experimental Protocol for Rat IV and PO PK Studies The tested compound was administered to male Sprague-Dawley rats as a single nominal intravenous dose of 3.0 mg/kg as a solution in 10% NMP, 10% solution, 15% EtOH, 35% PEG400 and 30% D5W. The tested compound was also administered to male Sprague-Dawley rats at single nominal oral dose of 3 mg/kg as a solution in 5% NMP, 30% PEG400, 10% TPGS, 5% PVP-K30 at 5 mL/kg dose volume. […]
QUANTITY KIND: RAT PLASMA-RAW PO % F_drg (%)

Cc1c(S(=O)(=O)NC(=O)c2ccc(-n3ccc(OCCC4(C(F)(F)F)CC4)n3)nc2N2C[C@@H](C)CC2(C)C)cnn1C [Compound 14]    61

[a] Cc1nn(C)cc1S(=O)(=O)NC(=O)c1ccc(-n2ccc(OCC3C(C)(C)C3(C)C)n2)nc1N1C[C@@H](C)CC1(C)C [Compound 20]
[b] Cc1nn(C)cc1S(=O)(=O)NC(=O)c1ccc(-n2ccc(OCC(C)(C)C(F)(F)F)n2)nc1N1C[C@@H](C)CC1(C)C [Compound 1]
[c] Cc1c(S(=O)(=O)NC(=O)c2ccc(-n3ccc(OCC4C(C)(C)C4(C)C)n3)nc2N2C[C@@H](C)CC2(C)C)cnn1C [Compound 21]
Arrange the 3 molecules by rising RAT PLASMA-RAW PO % F_drg, starting with the smallest. Give your ranking as a list of the labels in the requested order.
a, c, b
(a: 21%, c: 47%, b: 83%)

* * *

TEST SUMMARY: Rat IV and PO PK studies
Type: in vivo, male Sprague-Dawley rats
CONDITION DESCRIPTION: male, Sprague-Dawley, plasma, PO, nominal 3 mg/kg, read-out: RAT PLASMA-RAW PO AUC (0-inf)_drg
QUANTITY KIND: AUC(0-inf) (ng·h/mL)

Cc1c(S(=O)(=O)NC(=O)c2ccc(-n3ccc(OCC4C(C)(C)C4(C)C)n3)nc2N2C[C@@H](C)CC2(C)C)cnn1C [Compound 21]    3900
Cc1nn(C)cc1S(=O)(=O)NC(=O)c1ccc(-n2ccc(OCC3C4(CC4)C34CC4)n2)nc1N1C[C@@H](C)CC1(C)C [Compound 28]    7100
Cc1nn(C)cc1S(=O)(=O)NC(=O)c1ccc(-n2ccc(OCCC3(C(F)(F)F)CC3)n2)nc1N1C[C@@H](C)CC1(C)C [Compound 15]    16300
Cc1c(S(=O)(=O)NC(=O)c2ccc(-n3ccc(OCC4(C(F)(F)F)CC4)n3)nc2N2C[C@@H](C)CC2(C)C)cnn1C [Compound 9]    23400
Cc1c(S(=O)(=O)NC(=O)c2ccc(-n3ccc(OCCC4(C(F)(F)F)CC4)n3)nc2N2C[C@@H](C)CC2(C)C)cnn1C [Compound 14]    10500

[P] Cc1c(S(=O)(=O)NC(=O)c2ccc(-n3ccc(OCC(C)(C)C(F)(F)F)n3)nc2N2C[C@@H](C)CC2(C)C)cnn1C [Compound 13]
[Q] Cc1nn(C)cc1S(=O)(=O)NC(=O)c1ccc(-n2ccc(OCC(C)(C)C(F)(F)F)n2)nc1N1C[C@@H](C)CC1(C)C [Compound 1]
Looking at P and Q , which one comes out lower in AUC(0-inf) terms? Reply briefly: the label of your chosen item.
P

* * *

TEST TARGET: human PXR (Homo sapiens, UniProt O75469)
Construct: host or cells: DPX-2 cell line (derived from HepG2)
TEST SUMMARY: PXR assay: PXR mediated CYP3A4 induction in DPX-2 cell line
Assay type: cell-based
CONDITION DESCRIPTION: DPX-2 cells
Method: D. Experimental Protocol for PXR Assay The propensity for PXR mediated CYP3A4 induction is assessed using the DPX-2 cell line in vitro. […] The assay is run in 384 well format and each test article is administered in 11 doses ranging from 0.1 to 60 μM. […] Cells are cultured in the presence of test article for 48 hours and then cell viability is assessed using fluorescence based assay (Cell Titer-Fluor, Promega) with an EnVision Plate Reader (PerkinElmer). […]
QUANTITY KIND: CYP3A4 Induction-PXR human PXR internal Max % Activity (%)

[I] Cc1nn(C)c(C)c1S(=O)(=O)NC(=O)c1ccc(-n2ccc(OCC(C)(C)C(F)(F)F)n2)nc1N1C[C@@H](C)CC1(C)C [Compound 17]
[II] Cc1c(S(=O)(=O)NC(=O)c2ccc(-n3ccc(OCC4CC45CC5)n3)nc2N2C[C@@H](C)CC2(C)C)cnn1C (stereo partly drawn) [Compound 26]
[III] Cc1nn(C)cc1S(=O)(=O)NC(=O)c1ccc(-n2ccc(OCC3(C(F)(F)F)CCC3)n2)nc1N1C[C@@H](C)CC1(C)C [Compound 19]
Arrange the 3 compounds by rising CYP3A4 Induction-PXR human PXR internal Max % Activity, starting with the smallest. Answer format: the labels, ordered as requested.
III, I, II
(III: 1%, I: 3%, II: 6%)

* * *

TEST TARGET: human PXR (Homo sapiens, UniProt O75469)
Construct: host or cells: DPX-2 cell line (derived from HepG2)
Sequence (O75469 1-434): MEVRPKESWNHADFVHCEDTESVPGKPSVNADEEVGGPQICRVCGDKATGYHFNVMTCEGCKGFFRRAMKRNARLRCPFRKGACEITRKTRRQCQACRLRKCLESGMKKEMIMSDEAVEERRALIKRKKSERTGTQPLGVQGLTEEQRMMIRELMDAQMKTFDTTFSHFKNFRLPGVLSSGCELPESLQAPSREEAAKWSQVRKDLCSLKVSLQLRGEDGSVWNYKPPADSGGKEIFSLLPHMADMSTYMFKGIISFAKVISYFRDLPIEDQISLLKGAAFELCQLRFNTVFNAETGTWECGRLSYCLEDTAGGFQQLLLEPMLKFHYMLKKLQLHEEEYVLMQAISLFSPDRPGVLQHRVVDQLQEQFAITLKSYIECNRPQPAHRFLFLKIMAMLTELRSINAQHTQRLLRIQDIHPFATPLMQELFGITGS
TEST SUMMARY: PXR assay: PXR mediated CYP3A4 induction in DPX-2 cell line
Format: cell-based
CONDITION DESCRIPTION: DPX-2 cells
QUANTITY KIND: CYP3A4 Induction-PXR human PXR internal Max % Activity (%)

Examples with answers:
Cc1c(S(=O)(=O)NC(=O)c2ccc(-n3ccc(OCC4(C)CC4(F)F)n3)nc2N2C[C@@H](C)CC2(C)C)cnn1C (stereo partly shown) [Compound 24]    6
Cc1nn(C)cc1S(=O)(=O)NC(=O)c1ccc(-n2ccc(OCC(C)(C)C(F)(F)F)n2)nc1N1C[C@@H](C)CC1(C)C [Compound 1]    2
Cc1nn(C)cc1S(=O)(=O)NC(=O)c1ccc(-n2ccc(OCC(C)(CO)C(F)(F)F)n2)nc1N1C[C@@H](C)CC1(C)C (stereo partly shown) [Compound 45]    9

[I] Cc1nn(C)cc1S(=O)(=O)NC(=O)c1ccc(-n2ccc(OCC3C4(CC4)C34CC4)n2)nc1N1C[C@@H](C)CC1(C)C [Compound 28]
[II] Cc1nn(C)cc1S(=O)(=O)NC(=O)c1ccc(-n2ccc(OC(C3CC3)C3CC3)n2)nc1N1C[C@@H](C)CC1(C)C [Compound 48]
Select one. Lower CYP3A4 Induction-PXR human PXR internal Max % Activity: I or II Give the label of your selection.
I
(I: 4%, II: 8%)
